system: A549; assay: Cytotoxicity against human A549 cells after 48 hrs by SRB assay; type: functional, cell-based; conditions: Homo sapiens, A549, 48 h
QUANTITY: LC50 (µM)
One number for each entry, in µM.

SMILES_STRING: C/C=C1\NC(=O)[C@H](Cc2ccccc2)NC(=O)[C@@H](C(C)C)NC(=O)[C@@H]([C@H](C)CC)NC(=O)[C@H](NC(=O)[C@H](NC(=O)[C@H](CCCN)NC(=O)[C@H]2CCCN2C(=O)[C@H](NC(=O)[C@@H](NC(=O)[C@@H](NC(=O)[C@H](NC(=O)CCCC(C)C)C(C)C)[C@@H](C)O)C(C)C)C(C)C)[C@H](C)CC)COC(=O)[C@H](C(C)C)NC1=O
QUANTITY: LC50
MEASURED_VALUE: 1.27

Query compound follows.
GET /value?item= "C/C=C1\NC(=O)[C@H](Cc2ccccc2)NC(=O)[C@@H](C(C)C)NC(=O)[C@@H]([C@H](C)CC)NC(=O)[C@H](NC(=O)[C@H](NC(=O)[C@H](CCCN)NC(=O)[C@H]2CCCN2C(=O)[C@H](NC(=O)[C@@H](NC(=O)[C@H](CC(C)C)NC(=O)[C@H](NC(=O)CCCC(C)C)C(C)C)C(C)C)C(C)C)[C@H](C)CC)[C@H](C)OC(=O)[C@H](C(C)C)NC1=O" &field=LC50 returns 5.28
